- MEASURED ON: PTEN (Homo sapiens, UniProt P60484)
- Sequence (P60484 whole entry, species assumed): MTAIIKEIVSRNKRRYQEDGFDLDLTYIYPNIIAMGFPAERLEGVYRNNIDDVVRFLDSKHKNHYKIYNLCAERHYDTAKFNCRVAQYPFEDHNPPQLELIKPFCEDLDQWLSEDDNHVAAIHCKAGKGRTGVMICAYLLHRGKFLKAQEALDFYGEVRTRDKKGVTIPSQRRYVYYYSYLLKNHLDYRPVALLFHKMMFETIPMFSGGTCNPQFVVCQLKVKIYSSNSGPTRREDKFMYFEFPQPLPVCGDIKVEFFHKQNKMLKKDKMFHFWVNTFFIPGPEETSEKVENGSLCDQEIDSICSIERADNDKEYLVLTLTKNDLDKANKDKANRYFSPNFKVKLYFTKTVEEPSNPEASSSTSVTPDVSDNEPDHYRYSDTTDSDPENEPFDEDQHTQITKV
- PROTOCOL: PTEN Inhibition Assay: IC50 Determinations
- Assay type: biochemical
Overview of reported IC50 across a group of molecules:
Note: unit nM is implicit; provide only the numeric part.

Some solved cases for reference:
INSERT INTO results (molecule, reported_property, display_unit, recorded_number) VALUES
  ('O=C1C(=O)c2ccccc2-c2ccccc21 [SF1721-000]', 'IC50', 'nM', 3400),
  ('O=C1C(=O)c2cc(NS(=O)(=O)c3cccs3)ccc2-c2ccccc21 [SF1798-000]', 'IC50', 'nM', 369),
  ('O=C(O)CCC(=O)Nc1ccc2c(c1)C(=O)C(=O)c1ccccc1-2 [SF1804-000]', 'IC50', 'nM', 54700),
  ('O=C1C=CC(=O)c2ccccc21 [SF1737-000]', 'IC50', 'nM', 43000),
  ('CC(C)(C)C(=O)Nc1ccc2c(c1)C(=O)C(=O)c1ccccc1-2 [SF1670-000]', 'IC50', 'nM', 2000),
  ('O=C(COc1ccc(Cl)cc1)Nc1ccc2c(c1)C(=O)C(=O)c1ccccc1-2 [SF1790-000]', 'IC50', 'nM', 2600),
  ('Cc1cc(C)cc(S(=O)(=O)Nc2ccc3c(c2)C(=O)C(=O)c2ccccc2-3)c1 [SF1801-000]', 'IC50', 'nM', 1010),
  ('Cc1ccc(OCC(=O)Nc2ccc3c(c2)C(=O)C(=O)c2ccccc2-3)cc1 [SF1771-000]', 'IC50', 'nM', 395),
  ('O=C(Nc1ccc2c(c1)C(=O)C(=O)c1ccccc1-2)c1cccs1 [SF1799-000]', 'IC50', 'nM', 733),
  ('Oc1cc2ccccc2c2ccccc12 [SF1734-000]', 'IC50', 'nM', 33000);

Query O=C1Nc2ccc(Br)cc2C1=O [SF1814-000] yields IC50 of 44900

Looking up O=C(O)C(=O)Nc1ccc2c(c1)C(=O)C(=O)c1ccccc1-2 [SF1806-000] , I found its IC50 recorded as 12100

IC50 in this record for Nc1ccc2c(c1)C(=O)C(=O)c1ccccc1-2 [SF1789-000] : 776

----------
Reported pIC50 is given for each of the following compounds.
- MEASURED ON: PTP1B (Homo sapiens, UniProt P18031)
- Sequence (P18031 whole entry, species assumed): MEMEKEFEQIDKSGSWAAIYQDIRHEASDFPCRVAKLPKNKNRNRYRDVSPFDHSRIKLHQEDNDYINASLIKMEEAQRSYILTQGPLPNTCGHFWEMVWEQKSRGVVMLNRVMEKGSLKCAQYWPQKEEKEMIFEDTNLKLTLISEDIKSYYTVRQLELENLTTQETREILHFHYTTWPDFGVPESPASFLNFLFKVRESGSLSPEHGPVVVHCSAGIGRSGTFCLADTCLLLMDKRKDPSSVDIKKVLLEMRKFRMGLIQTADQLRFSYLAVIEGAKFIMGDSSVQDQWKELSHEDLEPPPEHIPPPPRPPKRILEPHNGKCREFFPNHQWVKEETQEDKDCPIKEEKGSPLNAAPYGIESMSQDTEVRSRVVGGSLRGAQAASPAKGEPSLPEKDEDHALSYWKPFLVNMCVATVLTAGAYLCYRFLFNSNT
- PROTOCOL: PTP1B Inhibition Assay: IC50 Determinations
- Assay type: biochemical
- RECORDED CONDITIONS: Table 29; read-out: PTP1B IC50
Scale explanation: pIC50 corresponds to minus log10 of a concentration expressed in moles per litre.

INSERT INTO measurements (structure_smiles, recorded_number) VALUES
  ('Cc1cccc(-n2cnc(C(=O)NNC(=O)c3ccc(C(C)(C)C)cc3)c2)n1', 4.22);

So the reported pIC50 for CC(C)(C)c1ccc(S(=O)(=O)Nc2ccc3c(c2)C(=O)C(=O)c2ccccc2-3)cc1 , on PTP1B (Homo sapiens, UniProt P18031), turned out to be 6.92

----------
- MEASURED ON: PTEN (Homo sapiens, UniProt P60484)
- PROTOCOL: PTEN Inhibition Assay: IC50 Determinations
- Type: biochemical
- RECORDED CONDITIONS: Table 25; read-out: PTEN IC50
REPORTED PROPERTY: IC50 (µM)
Hi! Could you send only the number? It should be in µM, unit omitted.

The molecule listed as O=C1C(=O)c2cccnc2-c2ncccc21 [SF1720-000, 1,10-phenanthroline-5,6-dione] has a reported IC50 of 5

----------
Below: a set of entries, each annotated with reported inhibition at 250 µM.
- MEASURED ON: UniProt:P60484
- PROTOCOL: PTEN Inhibition Assay: General Screening
- Assay type: biochemical
- RECORDED CONDITIONS: 250 uM; Table 23 polyamides; read-out: % Inhibition @250 uM
// note: answer is a bare numeric in %

INSERT INTO results (molecule, recorded_number) VALUES
  ('O=C(CCC(=O)NNC(=O)COc1ccc(Cl)cc1)NNC(=O)COc1ccc(Cl)cc1', 35.3),
  ('CCOC(=O)CNC(=O)C(c1ccc2ncccc2c1)N(CC1CCCO1)C(=O)c1snc(C(N)=O)c1N (stereo not shown)', 70.6),
  ('CCOC(=O)CNC(=O)C(c1ccc(O)cc1)N(C(=O)c1snc(C(N)=O)c1N)c1ccc2c(c1)OCO2 (stereo not shown)', 52.4);

Let me check: Nc1nonc1NC(=O)N/N=C/CCC/C=N/NC(=O)Nc1nonc1N , system UniProt:P60484, measured inhibition at 250 µM is 60.2

----------
- MEASURED ON: PTEN (Homo sapiens)
- PROTOCOL: PTEN Inhibition Assay: General Screening
- Assay type: biochemical
- RECORDED CONDITIONS: read-out: % Inhibition at 250 uM
Where a name gives a salt, the structure may show the parent alone.
// reported inhibition at 250 µM per item
Form entry: enter the amount, then its unit.

INSERT INTO assay_data (compound, result) VALUES
  ('O=P(O)(O)Oc1cccc2ccccc12 [SF1684-100, Phosphate, Monosodium Salt, reference compound]', '11.2%'),
  ('CC(C)=C[C@@H]1[C@H](C(=O)OCc2coc(Cc3ccccc3)c2)C1(C)C (mixture of isomers) [SF1671-000, reference compound]', '9.6%'),
  ('CC(C)C(C(=O)OC(C#N)c1cccc(Oc2ccccc2)c1)c1ccc(Cl)cc1 (stereo not drawn) [SF1683-000, Fenvalerate, reference compound]', '-25.5%'),
  ('CC1(C)[C@H](C=C(Br)Br)[C@@H]1C(=O)OC(C#N)c1cccc(Oc2ccccc2)c1 (stereo partly drawn) [SF1667-000, Deltamethrin, reference compound]', '0.3%'),
  ('CC1(C)C(C=C(Cl)Cl)[C@H]1C(=O)O[C@@H](C#N)c1cccc(Oc2ccccc2)c1 (stereo in doubt) [SF1687-000, Cypermethrin, reference compound]', '-5.9%');

Memo: CCN(N=O)c1ccc(O)c(O)c1 [SF1681-000, 3,4-Dephostatin, Ethyl-, reference compound] , reported inhibition at 250 µM: 82.4%

Input CC1(C(=O)O)C2CCC(O2)C1(C)C(=O)O (stereo not drawn) [SF1679-000, Cantharidic Acid, reference compound] . Output inhibition at 250 µM: 2.7%

According to the records, this compound O=C(O)[C@@H]1[C@H](C(=O)O)[C@H]2CC[C@@H]1O2 [SF1686-000, Endothall, reference compound] displays inhibition at 250 µM of -1.2%

Consider CC12CCC(C)(O1)C(C(=O)O)C2C(=O)O (stereo not drawn) [SF1676-000, 1,4-Dimethylendothall, reference compound] . Its measured inhibition at 250 µM is 3.3%

----------
- System: human prostate cancer cells (PC-3)
- PROTOCOL: MTT Assay for Determining Toxicity, PC-3
- Type: cell-based
- RECORDED CONDITIONS: 2 h, read-out: Viability IC50 PC-3
REPORTED PROPERTY: pIC50
pIC50 is defined as minus the log10 of a concentration measured in mol/L.

The compound CC(C)(C)C(=O)Nc1ccc2c(c1)C(=O)C(=O)c1ccccc1-2 [SF1670-000] showed pIC50 equal to 4.36

----------
Reported inhibition at 250 µM by item:
- MEASURED ON: PTEN (Homo sapiens, UniProt P60484)
- PROTOCOL: PTEN Inhibition Assay: General Screening
- Assay type: biochemical
- RECORDED CONDITIONS: read-out: % Inhibition @ 250 uM
Expressed in %, but write only the number.

INSERT INTO results (structure_smiles, reported_property, recorded_number) VALUES
  ('O=C(O)C(=O)Nc1ccc2c(c1)C(=O)C(=O)c1ccccc1-2', 'inhibition at 250 µM', 98.1),
  ('Nc1ccc2c(c1)C(=O)C(=O)c1ccccc1-2', 'inhibition at 250 µM', 99),
  ('COc1ccccc1OCC(=O)Nc1ccc2c(c1)C(=O)C(=O)c1ccccc1-2', 'inhibition at 250 µM', 94.7),
  ('CCOC(=O)Nc1ccc2c(c1)C(=O)C(=O)c1ccccc1-2', 'inhibition at 250 µM', 96.2);

Reported inhibition at 250 µM of O=C(COc1ccc(Cl)cc1)Nc1ccc2c(c1)C(=O)C(=O)c1ccccc1-2 : 99.2

Reported inhibition at 250 µM ( O=C(O)CCC(=O)Nc1ccc2c(c1)C(=O)C(=O)c1ccccc1-2 ) = 98.6

Form: molecule = CC(C)(C)c1ccc(C(=O)Nc2ccc3c(c2)C(=O)C(=O)c2ccccc2-3)cc1 ; inhibition at 250 µM = 83

Consider CC(C)c1ccccc1OCC(=O)Nc1ccc2c(c1)C(=O)C(=O)c1ccccc1-2 . Its measured inhibition at 250 µM is 99.4
